- Assayed system: T1, hPRLR.mmh (soluble monomeric human PRLR) (human)
- T1 construct: called soluble monomeric PRLR protein
- T1 chain: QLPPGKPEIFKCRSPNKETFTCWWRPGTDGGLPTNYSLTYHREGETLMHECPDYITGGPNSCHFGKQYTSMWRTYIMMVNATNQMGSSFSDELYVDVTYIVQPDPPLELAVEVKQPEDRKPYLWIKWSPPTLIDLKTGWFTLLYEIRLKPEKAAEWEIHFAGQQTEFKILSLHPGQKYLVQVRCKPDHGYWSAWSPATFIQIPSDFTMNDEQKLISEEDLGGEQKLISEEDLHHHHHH
- Measurement notes: SPR Biacore, 25 C, mAb capture
Measured koff, listed per entry.
Just the number in s⁻¹, nothing appended.

Known koff results, listed for orientation:
>  <Binder>
H1H6762P (antibody, human IgG1, V domains shown, Human IgG1 Fc (H1H)) VH: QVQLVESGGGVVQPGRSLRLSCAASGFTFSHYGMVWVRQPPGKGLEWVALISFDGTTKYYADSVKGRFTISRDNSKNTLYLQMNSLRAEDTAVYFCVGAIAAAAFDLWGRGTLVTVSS VL: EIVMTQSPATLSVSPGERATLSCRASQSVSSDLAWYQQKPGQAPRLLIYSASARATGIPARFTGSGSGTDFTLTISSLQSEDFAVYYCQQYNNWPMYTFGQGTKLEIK

>  <Units of measure>
s⁻¹

>  <Result>
0.000179

$$$$
>  <Binder>
H1H6785P (antibody, human IgG1, V domains shown, Human IgG1 Fc (H1H)) VH: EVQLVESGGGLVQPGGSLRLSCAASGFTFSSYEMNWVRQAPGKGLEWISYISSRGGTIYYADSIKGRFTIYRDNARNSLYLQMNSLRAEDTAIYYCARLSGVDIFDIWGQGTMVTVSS VL: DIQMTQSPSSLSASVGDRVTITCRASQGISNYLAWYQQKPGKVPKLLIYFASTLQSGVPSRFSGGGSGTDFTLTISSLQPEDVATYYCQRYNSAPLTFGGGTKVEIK

>  <Units of measure>
s⁻¹

>  <Result>
0.000171

$$$$

Okay, next one:
Please give the measured koff for this binder: H1H6975N (antibody, human IgG1, V domains shown, Tested with human IgG1 Fc (H1H); also called H2M6975N) VH: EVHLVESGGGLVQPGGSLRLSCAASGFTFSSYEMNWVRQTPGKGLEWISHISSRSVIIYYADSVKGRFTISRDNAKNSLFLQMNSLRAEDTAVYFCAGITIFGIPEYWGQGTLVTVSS VL: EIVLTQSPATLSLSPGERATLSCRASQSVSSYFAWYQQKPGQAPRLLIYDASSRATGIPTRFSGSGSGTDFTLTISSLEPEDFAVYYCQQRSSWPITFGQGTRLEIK 7.35e-05
